# SYSTEM_TESTED: angiotensin II AT1 receptor
# TEST_NAME: Assay A: Angiotensin II binding activity, rat uterine membrane preparation, 125I-AII displacement
pIC50: −log10 of the molar value.
Hi, to clarify the labels: rule met covers pIC50 from 7 upward, rule not met covers anything below 7.

compound="CCCCc1nc(CCCC)n(Cc2ccc(-c3ccccc3C(=O)OC)cc2)n1 [Compound 12]" label="rule met"
compound="CCCCn1nc(CCC)nc1Cc1ccc(-c2ccccc2-c2nnn[nH]2)nc1 [Compound 163]" label="rule not met"
compound="CCCCc1nc(C(=O)N(C)C(C)(C)C)n(Cc2ccc(-c3ccccc3-c3nnn[nH]3)nc2)n1 [Compound 267]" label="rule met"
compound="CCCCc1nc(-c2ccccc2Cl)nn1Cc1ccc(-c2ccccc2-c2nnn[nH]2)nc1 [Compound 278]" label="rule met"
compound="CCCCc1nc(Cl)n(Cc2ccc(-c3ccccc3C(=O)O)cc2)n1 [Compound 19]" label="rule not met"
compound="CCCCc1cn(-c2c(Cl)cccc2Cl)c(=O)n1Cc1ccc(-c2ccccc2-c2nnn[nH]2)nc1 [Compound 232]" label="rule met"
compound="CCCCn1nc(C(=O)NC)nc1Cc1ccc(-c2ccccc2-c2nnn[nH]2)nc1 [Compound 183]" label="rule not met"
compound="CCCCc1nn(C(=O)CCC)c(=O)n1Cc1ccc(-c2ccccc2-c2nn[nH]n2)cc1 [Compound 106]" label="rule met"
compound="CCCCc1nc(C2CCCCC2)nn1Cc1ccc(-c2ccccc2-c2nnn[nH]2)cc1 [Compound 77]" label="rule not met"
compound="CCCCc1nc(CCCC)n(Cc2ccc(-c3ccccc3C(=O)NNS(=O)(=O)C(F)(F)F)cc2)n1 [Compound 16]" label="rule met"
compound="CCCCn1nc(C(C)=O)nc1Cc1ccc(-c2ccccc2-c2nnn[nH]2)nc1 [Compound 194]" label="rule met"
compound="CCCCc1nn(CCCC)c(=O)n1Cc1ccc(-c2ccccc2-c2nnn[nH]2)cc1 [Compound 90]" label="rule met"
compound="CCCCc1cn(-c2ccccc2Cl)c(=O)n1Cc1ccc(-c2ccccc2-c2nnn[nH]2)cc1 [Compound 146]" label="rule met"
compound="CCCCn1nc(C(OC(C)C)OC(C)C)nc1Cc1ccc(-c2ccccc2-c2nnn[nH]2)nc1 [Compound 189]" label="rule met"
